# system: T1, Recombinant human IL-1beta (rhIL-1b) (human, UniProt P01584 117-269)
# T1 construct: R&D Systems Cat. No. 201-LB/CF; also called IL-1β; human IL-1β
# assayOverview: Biacore low-res, mAb captured, 25C; IL-1β in solution (118 nM) over captured mAb; low-resolution Biacore, 25 C
pKd: −log10 of the molar value.
Please enter met where pKd is greater than or equal to 9, and not met where it is lower.

binder	assignedClass
6.26.1 (antibody, human IgG4, V domains shown, lambda; also called 6.26.4) VH: QLQLQESGPGLVKPSETLSLTCTVSGGSISRSSYYWGWIRQPPGKGLEWMGNIYYSGSTHYNPSLKSRVTISVDTSKNQFSLKLSSVTAADTAVFYCAKGREYISSSGYGMDVWGQGTTVTVS VL: SYELTQPPSVSVSPGQTASITCSGDKLGNKYVCWYQQKPGQSPVLVIFQDSRRPSGIPERFSGSNSGNTATLTISGTQAMDEADYYCQAWDTSTVIFGGGTKLTVL	met
4.20.1 (antibody, human IgG4, V domains shown, kappa; also called 4.20.2) VH: QVQLVESGGGVVQPGRSLRLSCAASGFTFSNYGMNWVRQAPGKGLEWVAVIWYDGNNKSEADSVKGRFTISRDNSKNTLYLQMNSLRAEDTAVYYCARDSRSGPFDYWGQGTLVTVSS VL: EIVLTQSPDFQSVTPKEKVTITCRASQSIGSSLHWYQQKPDQSPKLLIKFASQSFSGVPSRISGSGSGTDFTLTINSLEAEDAATYYCHQSSSLPFTFGPGTKVDIK	not met
6.33.1 (antibody, human IgG4, V domains shown, lambda; also called mAb 6.33.1) VH: QVQLVESGGGVVQPGRSLRLSCAASGFTFSVYGMHWVRQAPGKGLEWVAVIWYDGSNKYYADSVKGRFTISRDNSKNTLYLQMNSLRAEDTAVYYCAREKSSGWFFDYWGQGTLVTVSS VL: QSALTQPASVSGSPGQSITISCTGTSSDVGSYNLVSWYQQHPGKAPKLMIYEVSKRPSGISNRFSGSKSGNTASLTISGLQAEDEADYYCCSYAGNSIWVFGGGTKLTVL	met
9.54.1 (antibody, human IgG4, V domains shown, lambda; also called 9.54.2) VH: QVQLVESGGGVVQPGRSLRLSCAASGFTFSSFGMHWVRQAPGKGLEWVAVIWYDGSNKYYADSVKGRFTISRDNSKNTLYLQMNSLRAEDTAVYYCARDPNYDILTGYYYYGMDVWGQGTTVTVS VL: SSELTQDPAVSVALGQTVRITCQGDILRTYYASWYQQKPGQAPVLVIYGKNDRPSGIPDRFSGSSSGNTASLTITGAQAEDEADYYCDSRDNTVTHLVFGGGTKLTVL	met
8.50.1 (antibody, human IgG4, V domains shown, lambda) VH: QVQLQESGPGLVKPSETLSLTCTVSGGSISSDYWSWIRQPAGKGLEWIGRFYNSGRTNYRPSLKSRITMSVDTSKNQFSLKLSSVTAADTAVYYCARDMYSGRGNWYFDLWGRGTLVTVS VL: SYELTQPPSVSVSPGQTARITCSGDALPKKYAYWYQQKSGQAPVLVIYEDSKRPSGIPERFSGSSSGTMATLTISGAQVEDEADYYCYSTDSSDNHRVFGGGTKLTVL	not met
